# Ragweed plant response rating annotations
- System: ragweed (common ragweed, Ambrosia elatior)
- PROTOCOL_SUMMARY: Test A postemergence, visual injury rating 0-100
- Assay type: in vivo
- CONDITION_DETAILS: 500 g ai/ha, 0 to 100 scale
Please state the value as a number alone, without comment.

CC1=[N+]([O-])C(C(=O)Nc2cccc(F)c2F)C(c2ccc(OC(F)(F)F)c(F)c2)C1 (racemic)
50
CC1=[N+]([O-])C(C(=O)Nc2cccc(F)c2F)C(c2ccccc2F)C1 (racemic)
0
CC1=[N+]([O-])C(C(=O)Nc2cccc(F)c2F)C(c2ccc(F)cc2Oc2ncc(F)cn2)C1 (racemic)
0

Now let's try a different one.
Recorded Ragweed plant response rating (molecule CC1=[N+]([O-])C(C(=O)Nc2cccc(F)c2F)C(c2ccc(C)c(Br)c2)C1 (racemic) ): 50

====

- Test system: barnyardgrass (Echinochloa crus-galli)
- PROTOCOL_SUMMARY: Test A preemergence, visual injury rating 0-100 (0 no effect, 100 complete control)
- Type: in vivo
- CONDITION_DETAILS: 500 g ai/ha
MEASURE_NAME: Barnyardgrass plant response rating (0 to 100 scale)
Please state the value as a number alone, without comment.

Consider the worked cases shown below.
CC1=[N+]([O-])C(C(=O)Nc2cccc(F)c2F)C(c2cc(C)cc(Cl)c2)C1 (stereo not drawn)
90
CC1=[N+]([O-])C(C(=O)Nc2cccc(F)c2F)C(c2cc(F)c(F)c(Oc3ncc(F)cn3)c2)C1 (racemic)
100

Now let's try a different one.
Recorded Barnyardgrass plant response rating (0 to 100 scale) (compound CC1=[N+]([O-])C(C(=O)Nc2cccc(F)c2F)C(c2cc(C(F)(F)F)cc(C(F)(F)F)c2)C1 (racemic) ): 90

====

- Tested on: barnyardgrass (Echinochloa crus-galli)
- PROTOCOL_SUMMARY: Test A postemergence, visual injury rating 0-100
- Type: in vivo
- CONDITION_DETAILS: 125 g ai/ha, 0 to 100 scale
# binarize Barnyardgrass plant response rating: threshold 50 inclusive, high side YES, low side NO

Say whether CC1=[N+]([O-])C(C(=O)Nc2cccc(F)c2F)C(c2ccccc2)C1 (centres unmarked) [Compound 97] shows Barnyardgrass plant response rating of 50 or more. YES

Say whether CC1=[N+]([O-])C(C(=O)Nc2cccc(F)c2F)C(c2cc(C)ccc2C)C1 (racemic) [Compound 79] shows Barnyardgrass plant response rating of 50 or more. YES

Say whether COc1cc(C2CC(C)=[N+]([O-])C2C(=O)Nc2cccc(F)c2F)cc(C)n1 (racemic) [Compound 57] shows Barnyardgrass plant response rating of 50 or more. YES

Say whether CC1=[N+]([O-])[C@@H](C(=O)Nc2cccc(F)c2F)[C@H](c2ccc(Cl)cc2)C1 (relative stereo) [Compound 5] shows Barnyardgrass plant response rating of 50 or more. YES

Say whether CC1=[N+]([O-])C(C(=O)Nc2cccc(F)c2F)C(c2cccc(F)c2C)C1 (racemic) [Compound 78] shows Barnyardgrass plant response rating of 50 or more. YES

Say whether CC1=[N+]([O-])C(C(=O)Nc2cccc(F)c2F)C(c2cccc(Oc3ccc(Cl)cn3)c2)C1 (racemic) [Compound 56] shows Barnyardgrass plant response rating of 50 or more. NO

Say whether CC1=[N+]([O-])C(C(=O)Nc2cccc(F)c2F)C(c2cc(C(F)(F)F)cc(C(F)(F)F)c2)C1 (racemic) [Compound 110] shows Barnyardgrass plant response rating of 50 or more. NO

Say whether CC1=[N+]([O-])C(C(=O)Nc2cccc(F)c2F)C(c2cc(C)c(F)c(C)c2)C1 (racemic) [Compound 111] shows Barnyardgrass plant response rating of 50 or more. YES

====

# Ragweed plant response rating annotations
- System: ragweed (common ragweed, Ambrosia elatior)
- PROTOCOL_SUMMARY: Test A preemergence, visual injury rating 0-100
- Format: in vivo
- CONDITION_DETAILS: 125 g ai/ha, 0 to 100 scale (0 no effect, 100 complete control), approx. 10 days

Simply: CC(C)C1=[N+]([O-])C(C(=O)Nc2cccc(F)c2F)C(c2ccc(C(F)(F)F)cc2)C1 (racemic) , ragweed (common ragweed, Ambrosia elatior), Ragweed plant response rating = 0

Simply: CC1=[N+]([O-])C(C(=O)Nc2cccc(F)c2F)C(c2cccc(Cl)c2C)C1 (racemic) , ragweed (common ragweed, Ambrosia elatior), Ragweed plant response rating = 30

Simply: CC1=[N+]([O-])C(C(=O)Nc2cccc(F)c2F)C(c2ccc(=O)n(Cc3ccc(Cl)cc3)c2)C1 (racemic) , ragweed (common ragweed, Ambrosia elatior), Ragweed plant response rating = 0

Simply: CC1=[N+]([O-])C(C(=O)Nc2cccc(F)c2F)C(c2cccc3c2CCC3)C1 (racemic) , ragweed (common ragweed, Ambrosia elatior), Ragweed plant response rating = 70

====

- Test system: barnyardgrass (Echinochloa crus-galli)
- PROTOCOL_SUMMARY: Test A postemergence, visual injury rating 0-100
- Format: in vivo
- CONDITION_DETAILS: 500 g ai/ha, 0 to 100 scale
# Barnyardgrass plant response rating annotations
Please state the value as a number alone, without comment.

Consider the worked cases shown below.
CC1=[N+]([O-])C(C(=O)Nc2cccc(F)c2F)C(c2cc(F)c(F)c(Oc3ncc(F)cn3)c2)C1 (racemic) [Compound 85]
80
CC1=[N+]([O-])C(C(=O)Nc2ccncc2C(F)(F)F)C(c2ccc(C(F)(F)F)cc2)C1 (racemic) [Compound 36]
0

Recorded Barnyardgrass plant response rating (compound CC1=[N+]([O-])C(C)(C(=O)Nc2cccc(F)c2F)C(c2ccc(C(F)(F)F)cc2)C1 (racemic) [Compound 1] ): 90

Recorded Barnyardgrass plant response rating (compound CC1=[N+]([O-])[C@H](C(=O)Nc2cccc(F)c2F)[C@@H](c2ccc(C(F)(F)F)c(F)c2)C1 (relative stereo) [Compound 61] ): 90

Recorded Barnyardgrass plant response rating (compound CCc1cc(CC)cc(C2CC(C)=[N+]([O-])C2C(=O)Nc2cccc(F)c2F)c1 (racemic) [Compound 109] ): 80

====

- System: foxtail, giant (giant foxtail, Setaria faberii)
- PROTOCOL_SUMMARY: Test A preemergence, visual injury rating 0-100
- Assay type: in vivo
- CONDITION_DETAILS: 125 g ai/ha
- Text: […]
# Foxtail, Giant plant response rating (0 to 100 scale) annotations
Please state the value as a number alone, without comment.

Recorded Foxtail, Giant plant response rating (0 to 100 scale) (compound CC1=[N+]([O-])C(C(=O)Nc2cccc(F)c2F)C(c2ccc(Cl)c(C(F)(F)F)c2)C1 (racemic) [Compound 104] ): 90

Recorded Foxtail, Giant plant response rating (0 to 100 scale) (compound CC1=[N+]([O-])[C@@H](C(=O)Nc2cccc(F)c2F)[C@H](c2ccc(Cl)cc2)C1 (relative stereo) [Compound 5] ): 100

Recorded Foxtail, Giant plant response rating (0 to 100 scale) (compound CC1=[N+]([O-])C(C(=O)Nc2cccc(F)c2F)C(c2cc(C)c(F)c(C)c2)C1 (racemic) [Compound 111] ): 90

Recorded Foxtail, Giant plant response rating (0 to 100 scale) (compound CC1=[N+]([O-])C(C(=O)Nc2cccc(F)c2F)C(c2cc(F)c(F)c(Oc3ncc(F)cn3)c2)C1 (racemic) [Compound 85] ): 80

Recorded Foxtail, Giant plant response rating (0 to 100 scale) (compound CC1=[N+]([O-])[C@H](C(=O)Nc2cccc(F)c2F)[C@@H](c2ccc(C(F)(F)F)c(F)c2)C1 (relative stereo) [Compound 61] ): 90

Recorded Foxtail, Giant plant response rating (0 to 100 scale) (compound CC1=[N+]([O-])C(C)(C(=O)Nc2cccc(F)c2F)C(c2ccc(C(F)(F)F)cc2)C1 (racemic) [Compound 1] ): 100

Recorded Foxtail, Giant plant response rating (0 to 100 scale) (compound CC1=[N+]([O-])C(C(=O)Nc2cccc(F)c2F)C(c2ccc(C(F)(F)F)c(C)c2)C1 (racemic) [Compound 87] ): 90

====

# Pigweed plant response rating (0 to 100 scale) annotations
- Tested on: pigweed (Amaranthus retroflexus)
- PROTOCOL_SUMMARY: Test A preemergence, visual injury rating 0-100
- Type: in vivo
- CONDITION_DETAILS: 500 g ai/ha
- Text: […]
Please state the value as a number alone, without comment.

CCOc1cc(OC)cc(C2CC(C)=[N+]([O-])C2C(=O)Nc2cccc(F)c2F)c1 (racemic)
0
CC1=[N+]([O-])C(C(=O)Nc2cccc(F)c2F)C(c2ccc(C(F)(F)F)cn2)C1 (racemic)
60
CC1=[N+]([O-])C(C(=O)Nc2cccc(F)c2F)C(c2cccc(C)c2C)C1 (racemic)
70
CC1=[N+]([O-])C(C(=O)Nc2cccc(F)n2)C(c2ccc(C(F)(F)F)cc2)C1 (racemic)
100
CC1=[N+]([O-])C(C(=O)Nc2cccc(F)c2F)C(c2ccc(C)c(Cl)c2)C1 (racemic)
30
CC1=[N+]([O-])C(C(=O)Nc2cccc(F)c2F)C(c2ccc(C(F)(F)F)c(Cl)c2)C1 (racemic)
90
CC1=[N+]([O-])C(C(=O)Nc2cccc(F)c2F)C(c2ccc(OC(F)(F)F)c(F)c2)C1 (racemic)
60
CC1=[N+]([O-])C(C(=O)Nc2cccc(F)c2F)C(c2cccc(C3OCCO3)c2)C1 (racemic)
0
CC1=[N+]([O-])C(C(=O)Nc2cccc(F)c2F)C(c2cccc(Br)n2)C1 (racemic)
0
CC1=[N+]([O-])C(C(=O)Nc2cccc(F)c2F)C(c2cc(F)c(F)c(Oc3ncc(F)cn3)c2)C1 (racemic)
0

Recorded Pigweed plant response rating (0 to 100 scale) (compound COc1cc(C2CC(C)=[N+]([O-])C2C(=O)Nc2cccc(F)c2F)ccc1C(F)(F)F (stereo not drawn) ): 60

Recorded Pigweed plant response rating (0 to 100 scale) (compound CC1=[N+]([O-])C(C(=O)Nc2cccc(F)c2F)C(c2cc(C(F)(F)F)cc(C(F)(F)F)c2)C1 (racemic) ): 60

Recorded Pigweed plant response rating (0 to 100 scale) (compound CC1=[N+]([O-])C(C(=O)Nc2cccc(F)c2F)C(c2cc(F)ccc2C)C1 (racemic) ): 20

Recorded Pigweed plant response rating (0 to 100 scale) (compound CC1=[N+]([O-])C(C(=O)Nc2cccc(F)c2F)C(c2cc(C)ccc2C)C1 (racemic) ): 0

Recorded Pigweed plant response rating (0 to 100 scale) (compound CC1=[N+]([O-])C(C(=O)Nc2cccnc2F)C(c2ccc(C(F)(F)F)cc2)C1 (racemic) ): 90
